Data credit: PubChem BioAssay (NCI)

System: NCI/ADR-RES ovarian
Assay: NCI tumour cell line growth inhibition, 48 h
Entries and their TGI values follow.
Just the number please, in µM, no unit attached.

Below, 3 molecules whose answers are already recorded.
molecule=CS(=O)(=O)N(c1cc(-c2ccc3ncnc(Nc4ccc(F)c(Cl)c4)c3c2)cnc1Cl)S(C)(=O)=O assaysystem="NCI/ADR-RES ovarian" endpointvalue=20.9
molecule="CN(C)/N=N/c1nc2c(c(=O)n(C)c(=O)n2C)n1CC1CO1 (stereo not given)" assaysystem="NCI/ADR-RES ovarian" endpointvalue=41.1
molecule=CC(C)(C)OC(=O)N[C@@H](Cc1ccccc1)C(=O)N(Cc1ccccc1)C1(C(=O)NCc2ccccc2)CCN(Cc2ccccc2)CC1 assaysystem="NCI/ADR-RES ovarian" endpointvalue=46.9

Okay, next one:
Lookup: Value lookup for TGI; key = COc1cc2c3c(n(CCCNCCCN)c(=O)c2cc1OC)-c1cc2c(cc1C3=O)OCO2
Found: 98.7
